Reported pEC50, Beta-3 adrenergic receptor (Homo sapiens).
# log scale: pEC50 equals minus log10 of the concentration in mol/L

{"columns": ["smiles-data", "pEC50"],
 "data": [
  ["C[C@H](CNc1ccc(CC(=O)Nc2nccs2)cc1)NC[C@H](O)c1cccc(Cl)c1", 8.90],
  ["C[C@H](CNc1ccc(C(=O)O)cc1)NC[C@H](O)c1cccc(Cl)c1", 6.10],
  ["C[C@H](CNc1ccccc1)NC[C@H](O)c1cccc(Cl)c1", 7.70],
  ["Cc1ccc(S(=O)(=O)NC(=O)Cc2cccc(NC[C@@H](C)NC[C@H](O)c3cccc(Cl)c3)c2)cc1", 8.20],
  ["C[C@H](CNc1ccc(CC(=O)NS(=O)(=O)c2ccccc2)cc1)NC[C@H](O)c1cccc(Cl)c1", 9.10],
  ["Cc1ccc(S(=O)(=O)NC(=O)Cc2ccc(NC[C@@H](C)NC[C@H](O)c3cccc(Cl)c3)cc2)cc1", 8.90],
  ["C[C@H](CNc1ccc(CC(=O)O)cc1)NC[C@H](O)c1cccc(Cl)c1", 7.80],
  ["C[C@H](CNc1ccc(CCC(=O)O)cc1)NC[C@H](O)c1cccc(Cl)c1", 7.60],
  ["C[C@H](CNc1cccc(CC(=O)O)c1)NC[C@H](O)c1cccc(Cl)c1", 6.50],
  ["CC(=O)NCc1ccc(NC[C@@H](C)NC[C@H](O)c2cccc(Cl)c2)cc1", 7.90]
]}

pEC50 for C[C@H](CNc1ccc(CC(=O)NS(C)(=O)=O)cc1)NC[C@H](O)c1cccc(Cl)c1 is 8.30

pEC50 for C[C@H](CNc1ccc(CNS(C)(=O)=O)cc1)NC[C@H](O)c1cccc(Cl)c1 is 7.70

###

# measured-target: Beta-2 adrenergic receptor (Homo sapiens)
# Sequence (P07550 whole entry, looked up): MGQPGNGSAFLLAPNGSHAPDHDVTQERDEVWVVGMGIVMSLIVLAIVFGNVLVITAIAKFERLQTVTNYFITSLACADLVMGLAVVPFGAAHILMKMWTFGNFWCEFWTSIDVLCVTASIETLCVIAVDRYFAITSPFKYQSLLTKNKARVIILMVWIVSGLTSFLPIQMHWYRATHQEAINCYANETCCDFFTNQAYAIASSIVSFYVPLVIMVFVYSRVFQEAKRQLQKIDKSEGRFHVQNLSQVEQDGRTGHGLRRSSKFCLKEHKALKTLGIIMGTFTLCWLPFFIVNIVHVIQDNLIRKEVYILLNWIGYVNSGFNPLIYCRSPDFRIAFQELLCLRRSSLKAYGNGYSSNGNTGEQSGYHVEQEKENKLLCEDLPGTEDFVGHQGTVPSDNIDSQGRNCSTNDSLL
# assay-notes: concentration-response expressed as a percent of the maximal response to R-(-) isoproterenol (ISO).Emax is the fitted maximal value of the concentration
# Assay type: functional
Recorded Emax by entry
Express it in %; write the number only.

{"columns": ["smiles-data", "Emax, %"],
 "data": [
  ["Cc1ccc(S(=O)(=O)NC(=O)Cc2ccc(NC[C@@H](C)NC[C@H](O)c3cccc(Cl)c3)cc2)cc1", 34],
  ["C[C@H](CNc1ccc(CCC(=O)O)cc1)NC[C@H](O)c1cccc(Cl)c1", 22],
  ["C[C@H](CNc1ccc(CC(=O)NS(=O)(=O)c2ccccc2)cc1)NC[C@H](O)c1cccc(Cl)c1", 59],
  ["C[C@H](CNc1ccccc1)NC[C@H](O)c1cccc(Cl)c1", 100],
  ["C[C@H](CNc1ccc(CNS(C)(=O)=O)cc1)NC[C@H](O)c1cccc(Cl)c1", 66],
  ["C[C@H](CNc1cccc(CNC(=O)NS(=O)(=O)c2ccccc2)c1)NC[C@H](O)c1cccc(Cl)c1", 23],
  ["Cc1ccc(S(=O)(=O)NC(=O)Cc2cccc(NC[C@@H](C)NC[C@H](O)c3cccc(Cl)c3)c2)cc1", 16],
  ["C[C@H](CNc1ccc(CC(=O)NS(C)(=O)=O)cc1)NC[C@H](O)c1cccc(Cl)c1", 78]
]}

Emax for Cc1ccc(CNC(=O)Cc2ccc(NC[C@@H](C)NC[C@H](O)c3cccc(Cl)c3)cc2)cc1 is 40

###

# measured-target: Beta-1 adrenergic receptor (Homo sapiens, UniProt P08588)
# Sequence (P08588 whole entry): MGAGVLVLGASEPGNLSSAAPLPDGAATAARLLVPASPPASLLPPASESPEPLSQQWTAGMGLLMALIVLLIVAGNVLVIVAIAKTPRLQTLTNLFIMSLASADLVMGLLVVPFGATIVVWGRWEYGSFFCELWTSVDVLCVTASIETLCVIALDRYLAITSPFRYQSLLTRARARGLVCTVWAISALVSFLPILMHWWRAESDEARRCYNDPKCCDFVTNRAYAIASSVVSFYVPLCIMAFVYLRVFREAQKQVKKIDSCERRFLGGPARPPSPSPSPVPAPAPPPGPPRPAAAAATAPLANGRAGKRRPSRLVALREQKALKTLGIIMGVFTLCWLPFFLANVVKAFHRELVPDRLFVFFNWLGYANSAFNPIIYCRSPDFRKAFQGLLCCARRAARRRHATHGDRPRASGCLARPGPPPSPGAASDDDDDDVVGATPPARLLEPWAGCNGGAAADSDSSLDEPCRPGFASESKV
# assay-notes: Ability to cause cAMP accumulation in CHO cells expressing human beta-1 AR expressed as the negative logarithm of the molar drug concentration
# Type: functional, cell-based
parameter: EC50 (nM)
Express it in nM; write the number only.

As a guide, the following entries are already answered.
{"columns": ["smiles-data", "measured-target", "parameter", "unit-annotation", "recorded-value"],
 "data": [
  ["Cc1ccc(S(=O)(=O)NCCc2ccc(NC[C@@H](C)NC[C@H](O)c3cccc(Cl)c3)cc2)cc1", "Beta-1 adrenergic receptor (Homo sapiens, UniProt P08588)", "EC50", "nM", 20],
  ["C[C@H](CNc1ccc(CC(=O)Nc2nccs2)cc1)NC[C@H](O)c1cccc(Cl)c1", "Beta-1 adrenergic receptor (Homo sapiens, UniProt P08588)", "EC50", "nM", 3.16],
  ["CC(=O)NCc1ccc(NC[C@@H](C)NC[C@H](O)c2cccc(Cl)c2)cc1", "Beta-1 adrenergic receptor (Homo sapiens, UniProt P08588)", "EC50", "nM", 7.94],
  ["C[C@H](CNc1ccc(CC(=O)O)cc1)NC[C@H](O)c1cccc(Cl)c1", "Beta-1 adrenergic receptor (Homo sapiens, UniProt P08588)", "EC50", "nM", 79.4],
  ["C[C@H](CNc1ccc(CNS(C)(=O)=O)cc1)NC[C@H](O)c1cccc(Cl)c1", "Beta-1 adrenergic receptor (Homo sapiens, UniProt P08588)", "EC50", "nM", 5.01]
]}

Now for the molecule whose EC50 we want.
EC50 for C[C@H](CNc1ccccc1)NC[C@H](O)c1cccc(Cl)c1 is 5.01

These measurements were taken from ChEMBL document CHEMBL1135599.
